- Tested on: Cryptococcus neoformans
- Recorded conditions: Concentration 20 uM; ASSAY_TEST Inhibition of Fungal Growth; detection method Resazurin; Absorption (OD600-OD570); plate type 384well; NBS; CORNING #3640
Potency and affinity values are given separately.
Readout label: Inhibition (%)
Express your answer in %, writing the number without its unit.

// known answers, use as guide
compound=COc1ccc(-c2cc(=O)c3c(OC)c(OC)c(OC)c(OC)c3o2)cc1OC measure_unit=% quantitative_readout=-2.3
compound="CC(C)NCC(O)COc1ccc(CCOCC2CC2)cc1.Cl (stereo not drawn) [BETAXOLOL HYDROCHLORIDE]" measure_unit=% quantitative_readout=-9.53
compound="CC(=O)OCC(=O)[C@@]1(O)CC[C@H]2[C@@H]3C[C@H](C)C4=CC(=O)C=C[C@]4(C)[C@H]3[C@@H](O)C[C@@]21C [METHYLPREDNISOLONE ACETATE]" measure_unit=% quantitative_readout=-0.41
compound="NC(=O)c1cccnc1 [NIACINAMIDE]" measure_unit=% quantitative_readout=-0.49
compound="CCc1cccc2c3c([nH]c12)C(CC)(CC(=O)O)OCC3 (stereo not drawn)" measure_unit=% quantitative_readout=-2.08

IN: Supply measured Inhibition of CC(=O)[C@H]1CC[C@H]2[C@@H]3C[C@H](C)C4=CC(=O)CC[C@]4(C)[C@H]3[C@@H](O)C[C@]12C in your reply.
OUT: -4.18

IN: Specify measured Inhibition for COc1cc(C(=O)NS(=O)(=O)c2ccccc2C)ccc1Cc1cn(C)c2ccc(NC(=O)OC3CCCC3)cc12 .
OUT: 1.96

IN: Please look at this compound and report its Inhibition: NC(=O)N1c2ccccc2C=Cc2ccccc21 [CARBAMAZEPINE]
OUT: -2.39

* * *

- System: Klebsiella pneumoniae
- Recorded conditions: Concentration 20 uM; ASSAY_TEST Inhibition of Bacterial Growth; detection method Absorption (OD600); MEDIA CAMHB; plate type 384well; NBS; CORNING #3640; time 18 hr
Potency and affinity values are given separately.
Reported values of Inhibition for individual entries
Unit % implied. Number only.

IN: Tell me its Inhibition given Cl.O.O=C1N(c2ccccc2)c2ccccc2C1(Cc1ccncc1)Cc1ccncc1 as the entry.
OUT: 9.02

* * *

- Tested on: Klebsiella pneumoniae
- Recorded conditions: Concentration 20 uM; ASSAY_TEST Inhibition of Bacterial Growth; detection method Absorption (OD600); MEDIA CAMHB; plate type 384well; NBS; CORNING #3640; time 18 hr
Measured potencies and affinities stand elsewhere.
Readout label: Inhibition (%)
Reply with just the number (in %).

compound="CCN1CCC[C@H]1CNC(=O)c1c(O)c(Cl)cc(Cl)c1OC [RACLOPRIDE]" measure_unit=% quantitative_readout=6.89
compound=Cc1sc(N)c(C(=O)c2cccc(C(F)(F)F)c2)c1C measure_unit=% quantitative_readout=7
compound="CC(=O)OCC(=O)[C@@]12OC(C)(C)O[C@@H]1C[C@H]1[C@@H]3C[C@H](F)C4=CC(=O)C=C[C@]4(C)[C@@]3(F)[C@@H](O)C[C@@]12C [FLUOCINONIDE]" measure_unit=% quantitative_readout=13.39
compound="CC[C@@H]1C(=O)OC[C@@H]1Cc1cncn1C.Cl [PILOCARPINE HYDROCHLORIDE]" measure_unit=% quantitative_readout=13.79

Now consider a different compound.
IN: State, in one line, measured Inhibition of COc1cc(C)c(/C=C/C(C)=C/C=C/C(C)=C/C(=O)O)c(C)c1C
OUT: 7.64

* * *

- Test system: Klebsiella pneumoniae
- Recorded conditions: Concentration 20 uM; ASSAY_TEST Inhibition of Bacterial Growth; detection method Absorption (OD600); MEDIA CAMHB; plate type 384well; NBS; CORNING #3640; time 18 hr
Entries with a potency or affinity are not part of this list.
Readout label: Inhibition (%)
Unit % implied. Number only.

These recorded examples may help you get a feel for the data.
molecule="Cl.Clc1ccc2nsnc2c1NC1=NCCN1 [TIZANIDINE HYDROCHLORIDE]" tgt="Klebsiella pneumoniae" quantitative_readout=10.36
molecule="CC[C@H](C)C(=O)O[C@H]1C[C@@H](C)C=C2C=C[C@H](C)[C@H](CC[C@@H]3C[C@@H](O)CC(=O)O3)[C@H]21 [LOVASTATIN]" tgt="Klebsiella pneumoniae" quantitative_readout=12.43
molecule="CNCC[C@@H](Oc1ccccc1C)c1ccccc1.Cl [ATOMOXETINE HYDROCHLORIDE]" tgt="Klebsiella pneumoniae" quantitative_readout=2.35

IN: Specify Inhibition for CC(C)NCC(O)COc1ccc(CC(N)=O)cc1 (stereo unspecified) [ATENOLOL] , system Klebsiella pneumoniae.
OUT: 8.57

IN: Tell me Inhibition of COc1ccc(CN2CCN(C(c3ccc(F)cc3)c3ccc(F)cc3)CC2)c(OC)c1OC.Cl.Cl when tested on Klebsiella pneumoniae.
OUT: -0.73

* * *

- Tested on: Cryptococcus neoformans
- Recorded conditions: Concentration 20 uM; ASSAY_TEST Inhibition of Fungal Growth; detection method Resazurin; Absorption (OD600-OD570); plate type 384well; NBS; CORNING #3640
Results with a measured potency or affinity are listed apart.
Readout label: Inhibition (%)
State the answer as a number, implicitly in %.

compound="O=C(O)c1cc2ccccc2c(Cc2c(O)c(C(=O)O)cc3ccccc23)c1O.OCCOCCN1CCN(C(c2ccccc2)c2ccc(Cl)cc2)CC1 [HYDROXYZINE PAMOATE]" quantitative_readout=7.04

Next, consider the following compound.
IN: Give reported Inhibition value for C#C[C@]1(O)CC[C@H]2[C@@H]3[C@H](C)CC4=C(CCC(=O)C4)[C@H]3CC[C@@]21C
OUT: -2.16

* * *

- Tested on: Klebsiella pneumoniae
- Recorded conditions: Concentration 20 uM; ASSAY_TEST Inhibition of Bacterial Growth; detection method Absorption (OD600); MEDIA CAMHB; plate type 384well; NBS; CORNING #3640; time 18 hr
Measured potencies and affinities stand elsewhere.
Readout label: Inhibition (%)
Please state the figure in %; there is no need to write the unit.

A selection of reference data follows.
compound="CN(CCO)CC(O)Cn1cnc2c1c(=O)n(C)c(=O)n2C.O=C(O)c1cccnc1 (centres undefined) [XANTHINOL NIACINATE]" tgt="Klebsiella pneumoniae" readout_label=Inhibition quantitative_readout=12.07
compound=CN(C)c1nc(N(C)C)nc(N(C)C)n1 tgt="Klebsiella pneumoniae" readout_label=Inhibition quantitative_readout=4.59
compound="CC(C)(C)NC(=O)[C@@H]1C[C@@H]2CCCC[C@@H]2CN1C[C@@H](O)[C@H](Cc1ccccc1)NC(=O)[C@H](CC(N)=O)NC(=O)c1ccc2ccccc2n1.CS(=O)(=O)O [SAQUINAVIR MESYLATE]" tgt="Klebsiella pneumoniae" readout_label=Inhibition quantitative_readout=4.6
compound=Cc1ccc(C)c(OCCCC(C)(C)C(=O)O)c1 tgt="Klebsiella pneumoniae" readout_label=Inhibition quantitative_readout=7.25
compound=C=C1/C(=C\C=C2/CCC[C@]3(C)[C@@H]([C@H](C)/C=C/[C@@H](O)C4CC4)CC[C@@H]23)C[C@@H](O)C[C@@H]1O tgt="Klebsiella pneumoniae" readout_label=Inhibition quantitative_readout=16.21
compound=CC(C)Oc1ccc2c(=O)c(-c3ccccc3)coc2c1 tgt="Klebsiella pneumoniae" readout_label=Inhibition quantitative_readout=12.22
compound=Cc1cccc(Nc2ccccc2C(=O)O)c1C tgt="Klebsiella pneumoniae" readout_label=Inhibition quantitative_readout=12.13
compound=Nc1ncnc2c1ncn2[C@@H]1O[C@H](CO)C[C@@H]1O.O tgt="Klebsiella pneumoniae" readout_label=Inhibition quantitative_readout=6

Moving on to another compound below.
IN: Return Inhibition (reported value) for this compound: CCCc1c(OCCCCc2nnn[nH]2)ccc(C(C)=O)c1O
OUT: 5.45

* * *

- System: Candida albicans
- Recorded conditions: 20 µM
Entries with a potency or affinity are not part of this list.
Readout label: Inhibition (%)
Please state the figure in %; there is no need to write the unit.

Example compounds with recorded Inhibition:
compound="Cc1ccc(S(=O)(=O)NC(=O)NN2CCCCCC2)cc1 [TOLAZAMIDE]" quantitative_readout=-0.09
compound="Cc1ccccc1C(OCCN(C)C)c1ccccc1.Cl (configuration not stated) [ORPHENADRINE HYDROCHLORIDE]" quantitative_readout=1.54
compound="CC[C@@H]1C(=O)OC[C@@H]1Cc1cncn1C.Cl [PILOCARPINE HYDROCHLORIDE]" quantitative_readout=2.29
compound=C=C1/C(=C\C=C2/CCC[C@]3(C)[C@@H]([C@H](C)CCCC(C)(C)O)CC[C@@H]23)C[C@@H](O)C[C@@H]1O quantitative_readout=2.06

IN: Supply recorded Inhibition for Nc1nc(N)c2nc(-c3ccccc3)c(N)nc2n1 here.
OUT: 4.35

IN: Return Inhibition for the following compound: CN1CCN(CCCN2c3ccccc3Sc3ccc(Cl)cc32)CC1.O=C(O)/C=C\C(=O)O.O=C(O)/C=C\C(=O)O [PROCHLORPERAZINE MALEATE]
OUT: 3.08

IN: Fill in Inhibition for record CN(C)CCOC(c1ccc(Cl)cc1)c1ccccn1.O=C(O)/C=C\C(=O)O (configuration not stated) [CARBINOXAMINE MALEATE]
OUT: 0.99

IN: Indicate the recorded Inhibition value for this compound: CC1=C(/C=C/C(C)=C/C=C/C(C)=C/C(=O)O)C(C)(C)CCC1
OUT: 2.93

IN: Kindly indicate its recorded Inhibition. Item: CC(Cc1ccccc1)(NC(=O)CN)c1ccccc1.Cl (configuration not stated) [REMACEMIDE HYDROCHLORIDE]
OUT: 4.18

IN: Dear colleague, please send me the reported Inhibition for COC(=O)C1=C(C)NC(C)=C(C(=O)OCC(C)C)C1c1ccccc1[N+](=O)[O-] (configuration not stated) when you can.
OUT: 6.12

IN: Write down Inhibition measured for item CCCCN1CCCC1CNC(=O)c1cc(C#N)c2ccccc2c1OC (configuration not stated) [NAFADOTRIDE]
OUT: 4.38

IN: Determine its reported Inhibition: O=C1N[C@H](C(=O)O)CS1
OUT: 3.85

IN: Specify reported Inhibition for the compound shown: C[C@H](N[C@@H](CCc1ccccc1)C(=O)O)C(=O)N1CCC[C@H]1C(=O)O [ENALAPRILAT ANHYDROUS]
OUT: 2.99

IN: Entry CCOC(=O)OC(C)OC1=C(C(=O)Nc2ccccn2)N(C)S(=O)(=O)c2ccccc21 (configuration not stated) needs its Inhibition filled in; supply it.
OUT: 0.25

IN: Give the measured Inhibition for CC[C@H](C)C(=O)O[C@H]1C[C@H](O)C=C2C=C[C@H](C)[C@H](CC[C@@H](O)C[C@@H](O)CC(=O)[O-])[C@H]21.[Na+] [PRAVASTATIN SODIUM]
OUT: 4.25

IN: For OCc1cc(C(O)CNCCCCCCOCCCCc2ccccc2)ccc1O (configuration not stated) , write its Inhibition.
OUT: 5.42

IN: Check the records and state Inhibition for CC(C)C[C@H](NC(=O)[C@@H](O)[C@H](N)Cc1ccccc1)C(=O)O
OUT: 0.73
